Target: human CB2 receptors (Homo sapiens, UniProt P34972)
Construct: expressed in transfected cells; host or cells: CHO cells
Sequence (P34972 whole entry): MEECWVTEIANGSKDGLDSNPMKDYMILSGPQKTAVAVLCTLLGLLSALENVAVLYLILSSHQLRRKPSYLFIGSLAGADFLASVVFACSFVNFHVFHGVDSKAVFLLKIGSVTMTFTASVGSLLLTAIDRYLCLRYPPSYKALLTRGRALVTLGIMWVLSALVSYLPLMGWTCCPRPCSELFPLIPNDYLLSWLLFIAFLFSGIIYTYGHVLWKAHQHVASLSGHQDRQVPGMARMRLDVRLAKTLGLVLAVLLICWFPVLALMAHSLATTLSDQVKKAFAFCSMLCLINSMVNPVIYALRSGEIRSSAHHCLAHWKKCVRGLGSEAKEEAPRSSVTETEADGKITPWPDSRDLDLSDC
Test: functional cAMP assay, CHO cells expressing human CB2
Type: cell-based
Protocol: CHO cells expressing human CB1 or CB2 receptors are seeded 17-24 hours prior to the experiment 50.000 cells per well in a black 96 well plate with flat clear bottom (Corning Costar #3904) in DMEM (Invitrogen No. 31331), 1×HT supplement, with 10% fetal calf serum and incubated at 5% CO2 and 37° C. in a humidified incubator. […] The time-resolved energy transfer is measured by a TRF reader (Evotec Technologies GmbH), equipped with a ND:YAG laser as excitation source. […]
assay-metric: EC50 (nM)
Answers are plain numbers, in nM.

Reference set, count: 6
{"compound": "CC(C)(C)c1nc(-c2ccc(C3CC3)c(OCCF)c2)no1 [Example 30]", "assay-metric": "EC50", "value-observed": 38.3}
{"compound": "CC(C)Oc1cc(C(=O)N[C@](C)(CC(N)=O)C2CC2)ccc1C1CC1 [Example 44]", "assay-metric": "EC50", "value-observed": 2.91}
{"compound": "NC(=O)[C@@H]1CC(F)(F)CN1C(=O)c1ccc(C2CC2)c(OCC2CC2)c1 [Example 17]", "assay-metric": "EC50", "value-observed": 0.51}
{"compound": "Cc1nc([C@](C)(CS(C)(=O)=O)NC(=O)c2ccc(C3CC3)c(OCC(F)(F)F)c2)no1 [Example 28]", "assay-metric": "EC50", "value-observed": 79.9}
{"compound": "CC(C)(C)c1nc(-c2ccc(C3CC3)c(OCC(F)(F)F)c2)no1 [Example 23]", "assay-metric": "EC50", "value-observed": 25.9}
{"compound": "CC(C)C[C@@H](CO)NC(=O)c1ccc(N2CC(F)(F)C2)c(OCC2CC2)c1 [Example 13]", "assay-metric": "EC50", "value-observed": 21.8}

Below is a list of compounds. For each, state its recorded EC50.
1. Cc1nc([C@](C)(CC2CC2)NC(=O)c2ccc(C3CC3)c(OC(C)C)c2)no1 (single isomer, unassigned) [Example 38]
2. Cc1nc([C@](C)(CC2CC2)NC(=O)c2ccc(C3CC3)c(OCC(F)F)c2)no1 [Example 32]

[26.6, 10.1]

###

Target: human CB2 receptors (Homo sapiens, UniProt P34972)
Construct: expressed in transfected cells; host or cells: CHO cells
Assay: functional cAMP assay, CHO cells expressing human CB2
Format: cell-based
Provide the reported EC50 of each item.
Please state the number and follow it with the unit.

Past entries and their recorded results:
{"chem-smiles": "CCOC(=O)C(CC)(CC)NC(=O)c1ccc(C2CC2)c(OCC2CC2)c1", "value-observed": "1.44 nM"}
{"chem-smiles": "C[C@](CC(N)=O)(NC(=O)c1ccc(C2CC2)c(-c2ccc(F)nc2)c1)C1CC1", "value-observed": "9.76 nM"}
{"chem-smiles": "C[C@@](CC(N)=O)(NC(=O)c1ccc(C2CC2)c(OCCF)c1)C1CC1", "value-observed": "231 nM"}

We next turn to a different compound, shown below.
Suppose we examine the compound NC(=O)CC1(NC(=O)c2ccc(C3CC3)c(OCC3CC3)c2)CS(=O)(=O)C1 ; what EC50 value has been reported?
2.65 nM

Values compiled from patent US11339120B2.
